This collection of values is drawn from ChEMBL document CHEMBL5620384.

- assay name: Cytotoxicity against human M10 cells assessed as growth inhibition after 72 hrs by MTS assay
- Type: toxicity, cell-based
observed property: IC50 at 72 h

> print(dat)
                       compound.structure  test.value
1  O=C1C(NCCN2CCOCC2)=C(Cl)C(=O)c2ncccc21      > 2 µM

---

- Test system: SW480
- assay name: Cytotoxicity against human SW480 cells assessed as cell survival measured at 2 uM after 72 hrs by MTS assay relative to control
- Format: functional
- settings: read-out: Activity
Each item that follows carries a reported viability at 2 µM.
observed property: viability at 2 µM (%)

> print(dat)
                          compound.structure    tgt  observed.property  test.value
 1  O=C1C(Cl)=C(NCCCCCN2CCOCC2)C(=O)c2ncccc21  SW480  viability at 2 µM        98.1
 2  O=C1C(Cl)=C(NCCN2CCOCC2)C(=O)c2ccc([N+](=O)[O-])cc21  SW480  viability at 2 µM        94.2
 3  O=C1C(Cl)=C(NCCN2CCOCC2)C(=O)c2c1cccc2[N+](=O)[O-]  SW480  viability at 2 µM        97.8
 4   O=C1C(NCCCN2CCOCC2)=C(Cl)C(=O)c2ncccc21  SW480  viability at 2 µM        51.6
 5  O=C1C(Cl)=C(NCCN2CCOCC2)C(=O)c2ccc(I)cc21  SW480  viability at 2 µM         111
 6    O=C1C(Cl)=C(NCCN2CCOCC2)C(=O)c2ccccc21  SW480  viability at 2 µM         100
 7  O=C1C(Cl)=C(NCCN2CCOCC2)C(=O)c2ccc(Br)cc21  SW480  viability at 2 µM         105
 8    O=C1C(Cl)=C(NCCN2CCOCC2)C(=O)c2ncccc21  SW480  viability at 2 µM        93.9
 9    O=C1C(NCCN2CCOCC2)=C(Cl)C(=O)c2ncccc21  SW480  viability at 2 µM        16.7
10  O=C1C(Cl)=C(NCCN2CCOCC2)C(=O)c2cc(Br)ccc21  SW480  viability at 2 µM        99.7
11  O=C1C(Cl)=C(NCCN2CCOCC2)C(=O)c2cc(I)ccc21  SW480  viability at 2 µM        84.3
12    O=C1C(Cl)=C(NCCN2CCOCC2)C(=O)c2cnccc21  SW480  viability at 2 µM         100
13  O=C1C(Cl)=C(NCCN2CCOCC2)C(=O)c2ccc(Cl)cc21  SW480  viability at 2 µM         106
14  O=C1C(Cl)=C(NCCN2CCOCC2)C(=O)c2cc(Cl)ccc21  SW480  viability at 2 µM         105
15  O=C1C(NCCN2CCOCC2)=C(Cl)C(=O)c2c1cccc2[N+](=O)[O-]  SW480  viability at 2 µM        89.3
16  O=C1C(Cl)=C(NCCN2CCOCC2)C(=O)c2cc([N+](=O)[O-])ccc21  SW480  viability at 2 µM        76.8
17   Nc1cccc2c1C(=O)C(Cl)=C(NCCN1CCOCC1)C2=O  SW480  viability at 2 µM          96
18  O=C1C(NCCCCCN2CCOCC2)=C(Cl)C(=O)c2ncccc21  SW480  viability at 2 µM          31
19   O=C1C(Cl)=C(NCCCN2CCOCC2)C(=O)c2ncccc21  SW480  viability at 2 µM         105
